Overview of reported pIC50 across a group of compounds:
# testedTarget: Human CD73 (Homo sapiens)
# Construct: purchased R&D Systems; host or cells: CHO cells
# Sequence (P21589 27-549): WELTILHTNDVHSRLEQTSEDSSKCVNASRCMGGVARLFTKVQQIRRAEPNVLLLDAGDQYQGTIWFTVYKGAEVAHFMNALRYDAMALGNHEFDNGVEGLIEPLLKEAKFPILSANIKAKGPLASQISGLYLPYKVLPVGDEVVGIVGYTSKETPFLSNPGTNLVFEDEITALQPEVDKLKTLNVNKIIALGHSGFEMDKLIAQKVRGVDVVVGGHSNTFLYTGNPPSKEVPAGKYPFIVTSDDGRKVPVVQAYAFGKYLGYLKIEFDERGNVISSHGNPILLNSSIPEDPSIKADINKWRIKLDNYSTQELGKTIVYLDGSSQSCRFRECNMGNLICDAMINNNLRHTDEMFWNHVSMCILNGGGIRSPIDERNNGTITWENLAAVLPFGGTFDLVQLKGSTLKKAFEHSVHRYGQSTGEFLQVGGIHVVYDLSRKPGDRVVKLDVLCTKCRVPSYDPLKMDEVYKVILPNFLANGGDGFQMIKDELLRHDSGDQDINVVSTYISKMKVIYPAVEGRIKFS
# assayName: CD73 Enzyme Assay
# Type: biochemical
# settings: 0.25 nM hCD73, 25 μM AMP, kinetic read at 360 nm; read-out: CD73 Enzyme Assay IC50
pIC50: −log10 of the molar value.

Prompt: # lookup: pIC50 of "CC#Cc1nc(NC2CCCC2)c2ccn([C@@H]3O[C@H](COCP(=O)(O)O)[C@@H](O)[C@H]3O)c2n1"
Response: > 8.00

Prompt: # lookup: pIC50 of "O=P(O)(O)COC[C@H]1O[C@@H](n2cnc3c(N4Cc5ccccc5C4)nc(Cl)nc32)[C@H](O)[C@@H]1O"
Response: 7.00 to 8.00

Prompt: # lookup: pIC50 of "C[C@H](c1ccccc1)N(C)c1nc(C#N)nc2c1ncn2[C@@H]1O[C@H](COCP(=O)(O)O)[C@@H](O)[C@H]1O"
Response: 7.00 to 8.00

Prompt: # lookup: pIC50 of "O=P(O)(O)COC[C@H]1O[C@@H](n2ccc3c(NC4CCCC4)nc(OCCO)nc32)[C@H](O)[C@@H]1O"
Response: > 8.00

Prompt: # lookup: pIC50 of "N#Cc1nc(NC2CCCC2)c2ccn([C@@H]3O[C@H](COCP(=O)(O)O)[C@@H](O)[C@H]3O)c2n1"
Response: > 8.00

---
Prompt: # lookup: pIC50 of "O=P(O)(O)CS(=O)(=O)C[C@H]1O[C@@H](n2ccc3c(N4CCC(F)(F)C4)nc(Cl)nc32)[C@H](O)[C@@H]1O"
Response: > 8.00

Prompt: # lookup: pIC50 of "CC[C@@H](Nc1nc(Cl)nc2c1ccn2[C@@H]1O[C@H](COCP(=O)(O)O)[C@@H](O)[C@H]1O)c1ccccc1"
Response: 7.00 to 8.00

Prompt: # lookup: pIC50 of "C=Cc1nc(NC(C)C)c2ncn([C@@H]3O[C@H](COCP(=O)(O)O)[C@@H](O)[C@H]3O)c2n1"
Response: 6.00 to 7.00

----------
# testedTarget: CD73 on U138 human neuroglioma cells (Homo sapiens)
# Construct: U138 cells were obtained from ATCC and cultured in DMEM with 10% FBS; host or cells: U138 human neuroglioma cells
# Sequence (P21589 27-549): as above
# assayName: CD73 Cell-Based Assay
# settings: U138 cells, AMP substrate, 2 hours at 37° C., inorganic phosphate by malachite green
pIC50: −log10 of the molar value.
Overview of reported pIC50 across a group of compounds:

Consider the following illustrative entries.
Prompt: # lookup: pIC50 of "O=P(O)(O)COC[C@H]1O[C@@H](c2ccc3c(NC4CCCC4)nc(Cl)nn23)[C@H](O)[C@@H]1O"
Response: > 8.00

Prompt: # lookup: pIC50 of "O=P(O)(O)COC[C@H]1O[C@@H](n2ccc3c(N(CC4CC4)C4CCCC4)nc(Cl)nc32)[C@H](O)[C@@H]1O"
Response: > 8.00

Prompt: # lookup: pIC50 of "C[C@H](Nc1nc(C#N)nc2c1cnn2[C@@H]1O[C@H](CS(=O)(=O)CP(=O)(O)O)[C@@H](O)[C@H]1O)c1ccc(F)cc1"
Response: > 8.00

---
Prompt: # lookup: pIC50 of "O=P(O)(O)COC[C@H]1O[C@@H](n2ccc3c(NC4CCCC4)nc(OCCCO)nc32)[C@H](O)[C@@H]1O"
Response: > 8.00

Prompt: # lookup: pIC50 of "O=P(O)(O)COC[C@H]1O[C@@H](n2ccc3c(N4CCCCC4)nc(Cl)nc32)[C@H](O)[C@@H]1O"
Response: > 8.00

Prompt: # lookup: pIC50 of "N#Cc1nc(NCc2ccccc2)c2ncn([C@@H]3O[C@H](COCP(=O)(O)O)[C@@H](O)[C@H]3O)c2n1"
Response: 6.00 to 7.00

Prompt: # lookup: pIC50 of "O=P(O)(O)COC[C@H]1O[C@@H](n2cnc3c(N4Cc5ccccc5C4)nc(Cl)nc32)[C@H](O)[C@@H]1O"
Response: 7.00 to 8.00

Prompt: # lookup: pIC50 of "O=P(O)(O)COC[C@H]1O[C@@H](n2ncc3c(N4CCC(F)(F)C4)nc(Cl)nc32)[C@H](O)[C@@H]1O"
Response: > 8.00

Prompt: # lookup: pIC50 of "C[C@H](Nc1nc(C#N)nc2c1ccn2[C@@H]1O[C@H](COCP(=O)(O)O)[C@@H](O)[C@H]1O)c1ccc(F)cn1"
Response: 7.00 to 8.00

Prompt: # lookup: pIC50 of "C[C@H](Nc1nc(Cl)nc2c1ncn2[C@@H]1O[C@H](CS(=O)(=O)CP(=O)(O)O)[C@@H](O)[C@H]1O)c1ccccc1"
Response: 7.00 to 8.00

Prompt: # lookup: pIC50 of "O=P(O)(O)COC[C@H]1O[C@@H](n2ccc3c(N4CCC(F)(F)CC4)nc(Cl)nc32)[C@H](O)[C@@H]1O"
Response: 7.00 to 8.00

Prompt: # lookup: pIC50 of "O=P(O)(O)COC[C@H]1O[C@@H](n2ccc3c(Nc4ccccc4)nc(Cl)nc32)[C@H](O)[C@@H]1O"
Response: 6.00 to 7.00

Prompt: # lookup: pIC50 of "C[C@H](Nc1nc(C#N)nc2c1ccn2[C@@H]1O[C@H](COCP(=O)(O)O)[C@@H](O)[C@H]1O)c1ccccc1"
Response: > 8.00

Prompt: # lookup: pIC50 of "CCNc1nc(Cl)nc2c1ccn2[C@@H]1O[C@H](COCP(=O)(O)O)[C@@H](O)[C@H]1O"
Response: 7.00 to 8.00
